Test system: Calf thymus DNA
Test: Binding affinity to calf thymus DNA by UV-vis spectrophotometric method
Format: nucleic-acid assay
Details: Bos taurus
Threshold 6. log Ks below it: class 1. log Ks at it or above: class 0.

Use the examples below as a reference point.
| Sample smiles | Class |
| --- | --- |
| Cl.Cl.c1cc2[nH]c(-c3ccc(Cn4cc(COCc5cn(Cc6ccc(-c7nc8cc(C9=NCCN9)ccc8[nH]7)o6)nn5)nn4)o3)nc2cc1C1=NCCN1 | class 0 |
| c1ccc2[nH]c(-c3ccc(Cn4cc(CCCc5cn(Cc6ccc(-c7nc8ccccc8[nH]7)o6)nn5)nn4)o3)nc2c1 | class 0 |
| Clc1ccc2[nH]c(-c3ccc(Cn4cc(COCc5cn(Cc6ccc(-c7nc8cc(Cl)ccc8[nH]7)o6)nn5)nn4)o3)nc2c1 | class 1 |

Let us examine a further case.
Dear reviewer, please state whether `CC(C)NC(=N)c1ccc2[nH]c(-c3ccc(Cn4cc(CCCc5cn(Cc6ccc(-c7nc8cc(C(=N)NC(C)C)ccc8[nH]7)o6)nn5)nn4)o3)nc2c1.Cl.Cl` has log Ks strictly beneath 6. class 0
